# Tested on: HepG2
# protocol.notes: Antiproliferative activity against human HepG2 cells assessed as cell growth inhibition measured after 48 hrs by MTT assay
# Type: functional, cell-based
# test.parameters: HepG2, 48 h
pIC50: −log10 of the molar value.
Listing of recorded pIC50 by entry.
parameter.measured: pIC50

O=C1c2cc([N+](=O)[O-])ccc2-c2cccc3ccnc1c23 | < 4.40
COc1cc2c3c(nccc3c1OC)C(=O)c1cc(OCc3ccccc3)ccc1-2 | < 4.40
O=C1c2cc3c(cc2-c2cccc4ccnc1c24)OCO3 | < 4.40

###

# Test system: WI-38
# protocol.notes: Antiproliferative activity against human WI-38 cells assessed as cell growth inhibition measured after 48 hrs by MTT assay
# Format: functional, cell-based
# test.parameters: WI-38, 48 h
Listing of recorded IC50 by entry.
parameter.measured: IC50

O=C1c2cc(Cl)ccc2-c2cccc3ccnc1c23 | > 40 µM
COc1ccc2c(c1)-c1cccc3ccnc(c13)C2=O | > 40 µM
O=C1c2cc([N+](=O)[O-])ccc2-c2cccc3ccnc1c23 | > 40 µM
